The values you see were collected from patent US4628061A.

- measurement.target: thromboxane receptor sites (Homo sapiens, UniProt P21731)
- Construct: Platelet-rich plasma is obtained from fresh, citrated human blood; endogenous in cells; host or cells: human platelets in platelet-rich plasma from fresh citrated blood
- Sequence (P21731 whole entry): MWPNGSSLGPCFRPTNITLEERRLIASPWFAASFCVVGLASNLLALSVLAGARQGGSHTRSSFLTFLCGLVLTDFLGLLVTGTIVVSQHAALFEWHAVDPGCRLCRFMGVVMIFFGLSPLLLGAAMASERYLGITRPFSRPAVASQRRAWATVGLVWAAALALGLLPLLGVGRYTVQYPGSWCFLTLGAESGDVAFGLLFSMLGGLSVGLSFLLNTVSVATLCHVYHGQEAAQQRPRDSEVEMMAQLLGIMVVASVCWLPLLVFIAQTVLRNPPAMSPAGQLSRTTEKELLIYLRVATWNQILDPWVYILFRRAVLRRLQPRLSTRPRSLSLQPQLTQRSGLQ
- measurement.description: Human Platelet System (inhibition of aggregation by 11,9-(epoxymethano) PGH2 in platelet-rich plasma)
- Format: cell-based
- recorded.conditions: Gaddum-Schild Equation, agonist 11,9-(epoxymethano) PGH2, compound added 5 minutes before agonist, typical values, read-out: Affinity Constants (KB) Human Platelets (converted)
assay.metric: Kb (µM)

Please review the entries below; each comes with its answer.
[[record]]
compound = "O=C(O)CCC/C=C\\CC1C2C=CC(C2)C1CCNC(=O)Nc1ccccc1 (centres unmarked)"
measurement_target = "thromboxane receptor sites (Homo sapiens, UniProt P21731)"
recorded_result = 29.4

[[record]]
compound = "O=C(O)CCC/C=C\\C[C@H]1[C@H]2CC[C@H](C2)[C@@H]1CNC(=O)Nc1ccccc1 (relative stereo)"
measurement_target = "thromboxane receptor sites (Homo sapiens, UniProt P21731)"
recorded_result = 3.57


a = COc1ccc(NC(=S)NCC2C3C=CC(C3)C2C/C=C\CCCC(=O)O)cc1 (centres unmarked)
b = COc1ccc(NC(=S)NC(C)CC2C3C=CC(C3)C2C/C=C\CCCC(=O)O)cc1 (centres unmarked)
Request: # min-compare on Kb between a and b // respond with label for picked entry
Result: b

###

- measurement.target: thromboxane receptor sites (Oryctolagus cuniculus)
- Construct: contraction to 11,9-(epoxymethano) PGH2 (U-46619)
- Sequence (Q6WQI8 1-233): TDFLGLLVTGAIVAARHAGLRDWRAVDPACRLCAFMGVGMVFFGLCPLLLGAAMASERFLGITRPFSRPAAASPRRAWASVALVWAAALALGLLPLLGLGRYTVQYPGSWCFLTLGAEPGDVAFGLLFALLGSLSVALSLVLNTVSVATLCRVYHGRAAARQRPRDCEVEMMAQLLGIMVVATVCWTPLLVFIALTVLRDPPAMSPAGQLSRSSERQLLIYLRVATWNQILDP
- measurement.description: Rabbit Aorta System (inhibition of tension response of spiral strips of thoracic aorta to 11,9-(epoxymethano) PGH2)
- Format: cell-based
- recorded.conditions: Gaddum-Schild Equation; agonist 11,9-(epoxymethano) PGH2; compound added 50 minutes before agonist; 37° C; typical values; read-out: Affinity Constants (KB) Rabbit Aorta (converted)
assay.metric: Kb (nM)

Please review the entries below; each comes with its answer.
[[record]]
molecule = "COc1ccc(NC(=O)NCCC2C3C=CC(C3)C2C/C=C\\CCCC(=O)O)cc1 (stereo not drawn)"
assay_metric = "Kb"
recorded_result = 833

[[record]]
molecule = "COc1ccc(NC(=S)NC(C)CC2C3C=CC(C3)C2C/C=C\\CCCC(=O)O)cc1 (stereo not drawn)"
assay_metric = "Kb"
recorded_result = 1050


A = COc1ccc(NC(=S)NCC2C3C=CC(C3)C2C/C=C\CCCC(=O)O)cc1 (stereo not drawn)
B = O=C(O)CCC/C=C\C[C@H]1[C@H]2CC[C@H](C2)[C@@H]1CNC(=O)Nc1ccccc1 (relative stereo)
C = COc1ccc(NC(=S)NCCC2C3C=CC(C3)C2C/C=C\CCCC(=O)O)cc1 (stereo not drawn)
D = O=C(O)CCC/C=C\CC1C2C=CC(C2)C1CCNC(=O)Nc1ccccc1 (stereo not drawn)
Request: Sort by Kb, descending. Provide the labels, sequenced as the question asks.
Result: B, C, D, A
